Target: T1, monkey (cyno) GPRC5D, on 293T cells (monkey (cyno))
T1 construct: whole, on cells; also called monkey GPRC5D
Assay: FACS, hybridoma supernatant on 293T cells expressing monkey GPRC5D

binder	EC50, µg/mL
murine antibody 6E97 (A4 antibody) (antibody, V domains shown, Tested as hybridoma cell culture supernatant; also called murine anti-6E97) VH: QVQLKESGPELVKPGASVKISCKASGYTFPYYVIHWVKQKPGQGLEWIGYINPYNDGTKYNEKFKGKAALTSDKSSSTAYMELSSLTSEDSAVYYCARGGVRRYFDYWGQGTTLTVSS VL: QIVLTQSPSSLSASLGERVSLTCRASQDIGSNLNWLQQEPDGTIKRLISATSSLDSGVPKRFSGSRSGSDYSLTISSLESEDFVDYFCLQYATFPYTFGGGTKLEIK	0.243
murine antibody 9D7 (A1 antibody) (antibody, V domains shown, Tested as hybridoma cell culture supernatant; also called murine anti-9D7) VH: QVQLKESGPGLVKPSQSLSLTCTVTGYSITSDYAWNWIRQFPGNKLEWMGYISYSGSATYNPSLKSRISITRDTSKNQFFLQLNSMTTEDTATYYCARGGIAGRGRWGAMDYWGQGTSVTVSS VL: DIVMTQAQKFMSTSVGDRVSVTCKASQNVGTNVAWYQNKPGQSPKALIYSASYRDSGVPDRFTGRGSGTDFTLTISNVQSEDLAEYFCQQYKSYPLTFGAGTKLELK	0.376
murine antibody 26D1 (A2 antibody) (antibody, V domains shown, Tested as hybridoma cell culture supernatant; also called murine anti-26D1) VH: QVQLKQSGAELAGPGASVKMSCKASGYTFTSYTIQWIKQRPGQGLEWIGYIIPSSGYTNYNQKFKDKATLTADKSSNTAYMQLSSLTSEDSAVYYCANNYGNWGFTYWGQGTLVTVSA VL: DILMTQSQKFMSTSVRDRVSISCKASQNVGSAVTWYQQKPGQSPRLLIYSASNRYTGVPDRFTGSGSGTDFTLTISNVQSEDLADYFCQQYSNYPLTFGGGTKLEIK	12.3
murine antibody 24F5 (A3 antibody) (antibody, V domains shown, Tested as hybridoma cell culture supernatant; also called murine anti-24F5) VH: QVQLKESGPELVKPGASVKISCKASGYTFPYYVMHWVKQKPGQGLEWIGYINPYNDGTKYNEKFKGKAALTSDKSSSTAYMDLSSLTSEDSAVYYCARGGVRRYFDYWGQGTTLTVSS VL: DIQMTQTPSSLSASLGERVSLTCRASQDIGSNLNWLQQEPDGTIKRLIYATSSLDSGVPKRFSGSRSGSDYSLTISSLESEDFVDYYCLQYATFPYTFGGGTKLEIK	0.268
